Cited source: the RNAGym collection of RNA variant scans (doi:10.7554/elife.90254)

B1: LINE1-mini (parent)
chain: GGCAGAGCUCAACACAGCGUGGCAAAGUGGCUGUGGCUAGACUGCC

- Variants of: B1
- METHOD_DESCRIPTION: self-cleavage, relative activity (ratio to wild type); higher = more cleavage; in vitro, sequencing; the parent is a self-cleaving ribozyme
The variants listed here are annotated with their self-cleavage.

[
  {
    "MUT": "C3G G44U",
    "self-cleavage": 1.21
  },
  {
    "MUT": "G17C G22U",
    "self-cleavage": 1.51
  },
  {
    "MUT": "C3A G40C",
    "self-cleavage": 0.19
  },
  {
    "MUT": "A24U C45U",
    "self-cleavage": 0.91
  },
  {
    "MUT": "U20G C42U",
    "self-cleavage": 0.17
  },
  {
    "MUT": "C8U A11G",
    "self-cleavage": 0.03
  },
  {
    "MUT": "C18G U34A",
    "self-cleavage": 0.05
  },
  {
    "MUT": "U32G G40U",
    "self-cleavage": 0.11
  },
  {
    "MUT": "G17U G21U",
    "self-cleavage": 0.36
  },
  {
    "MUT": "U28A C37A",
    "self-cleavage": 0.04
  },
  {
    "MUT": "C10U A26U",
    "self-cleavage": 0.31
  },
  {
    "MUT": "G17A U32G",
    "self-cleavage": 0.06
  },
  {
    "MUT": "A4U A24G",
    "self-cleavage": 0.26
  },
  {
    "MUT": "A12U G44U",
    "self-cleavage": 0.11
  },
  {
    "MUT": "C3A A14C",
    "self-cleavage": 0.16
  }
]
